Molecular target: TRPC6 (Homo sapiens (Human), UniProt Q9Y210)
Sequence (Q9Y210 whole entry, species assumed): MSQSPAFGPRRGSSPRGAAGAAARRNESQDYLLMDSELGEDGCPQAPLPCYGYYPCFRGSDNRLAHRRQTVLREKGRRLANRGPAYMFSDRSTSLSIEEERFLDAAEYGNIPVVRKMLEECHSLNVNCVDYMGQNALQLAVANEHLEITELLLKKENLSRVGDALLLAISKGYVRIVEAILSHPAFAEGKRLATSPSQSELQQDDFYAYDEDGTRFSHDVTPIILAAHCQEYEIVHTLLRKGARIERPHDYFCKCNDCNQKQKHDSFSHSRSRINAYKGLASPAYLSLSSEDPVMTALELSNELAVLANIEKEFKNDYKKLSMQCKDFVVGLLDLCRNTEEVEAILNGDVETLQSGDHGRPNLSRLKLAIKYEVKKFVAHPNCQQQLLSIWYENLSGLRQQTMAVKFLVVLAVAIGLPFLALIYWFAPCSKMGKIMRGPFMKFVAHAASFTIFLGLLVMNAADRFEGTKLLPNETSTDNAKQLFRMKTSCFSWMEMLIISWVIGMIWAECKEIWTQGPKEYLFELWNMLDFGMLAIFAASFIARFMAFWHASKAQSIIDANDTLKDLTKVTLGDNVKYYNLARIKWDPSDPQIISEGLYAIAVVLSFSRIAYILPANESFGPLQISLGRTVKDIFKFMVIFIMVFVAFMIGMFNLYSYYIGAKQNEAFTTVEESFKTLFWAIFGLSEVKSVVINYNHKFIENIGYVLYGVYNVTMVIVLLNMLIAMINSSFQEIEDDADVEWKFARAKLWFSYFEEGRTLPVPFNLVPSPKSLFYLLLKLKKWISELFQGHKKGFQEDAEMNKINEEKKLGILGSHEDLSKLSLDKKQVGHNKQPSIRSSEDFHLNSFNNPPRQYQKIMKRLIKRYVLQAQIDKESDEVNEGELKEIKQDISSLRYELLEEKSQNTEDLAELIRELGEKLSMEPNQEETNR
Assay: High throughput screening assay: fluorescent calcium (Fluo4/AM) assay of TRPC6 channel activation by GSK1702934A in HEK293/TREx cells
Settings: HEK293/TREx cells stably transfected with TRPC6; agonist GSK1702934A; 7 concentrations 20 μM to 0.027 μM, triplicate
From the text: This screening assay measures TRPC6 (transient receptor potential cation channel, subfamily C, member 6) ion channel activation via addition either of the commercially available DAG ligand analogue OAG (1-oleoyl-2-acetyl-sn-glycerol) or of the TRPC6 agonist 1-[1-(4,5,6,7,8-pentahydrocyclohepta[2,1-d]thiophen-2-ylcarbonyl)-4-piperidyl]-3-hydrobenzimidazol-2-one (GSK1702934A). […]
parameter.measured: pIC50
Numbers only, as −log10 of the molar value.

A selection of reference data follows.
# input Quickly give me recorded pIC50 for CCCOc1cnc(C(=O)N2CCC(c3ccc(N)nn3)CC2)cc1OC
# output 5.74

# input Quickly give me recorded pIC50 for COc1cc(C(=O)N2CCC(c3ccc(N)nn3)CC2)ncc1Oc1ccc(OC2CC2)cc1
# output 6.77

# input Quickly give me recorded pIC50 for COc1cc(C(=O)N2CCC(c3cnc(N)cc3OC)CC2)ncc1Oc1ccc(C(F)(F)F)cc1
# output 7.17

# input Quickly give me recorded pIC50 for CCOc1cc(N)nnc1C1CCN(C(=O)c2cc(OC)c(Oc3ccc(C(F)(F)F)cc3)cn2)CC1
# output 6.21

# input Quickly give me recorded pIC50 for COc1cc(C(=O)N2CCC(c3cnc(N)cc3OC)CC2)ncc1Oc1ccccc1
# output 7.27

# input Quickly give me recorded pIC50 for COc1cc(C(=O)N2CCC(c3cnc(N)cc3OC)CC2)ncc1OCC1(C)CC1
# output 7.15

# input Quickly give me recorded pIC50 for COc1cc(C(=O)N2CCC(c3cnc(N)cc3OC)CC2)ncc1OCCc1ccccc1
# output 6.72

# input Quickly give me recorded pIC50 for COc1ccc(Oc2cnc(C(=O)N3CCC(c4cc(OC)c(N)nn4)CC3)cc2OC)cc1
# output 6.36

# input Quickly give me recorded pIC50 for COc1cc(C(=O)N2CCC(c3cnc(N)cc3OC)CC2)ncc1OC(C)C
# output 6.04

# input Quickly give me recorded pIC50 for COc1cc(N)nnc1C1CCN(C(=O)c2ccc(Oc3ccc(C(F)(F)F)cc3)cn2)CC1
# output 6.38

Provide pIC50 for all items below, preserving their order.
1. COc1cc(C(=O)N2CCC(c3cnc(N)cc3OC)CC2)ncc1OCc1ccccc1F
2. COc1cc(C(=O)N2CCC(c3nnc(N)cc3OC)CC2)ncc1Oc1ccccc1
3. COc1cc(C(=O)N2CCN(c3cnc(N)cc3OC)CC23CC3)ncc1Oc1ccc(F)cc1

# output
7.49
6.66
7.57

====

Kindly state IC50 for each of the entries shown.
target: TRPC6 (Homo sapiens (Human)); experiment: High throughput screening assay: fluorescent calcium (Fluo4/AM) assay of TRPC6 channel activation by GSK1702934A in HEK293/TREx cells; settings: HEK293/TREx cells stably transfected with TRPC6; agonist GSK1702934A; 7 concentrations 20 μM to 0.027 μM, triplicate
Numbers only, in nM.

# input Check TRPC6 (Homo sapiens (Human)) data and give IC50 for COc1ccc(Oc2cnc(C(=O)N3CCN(c4ccc(N)nc4)C[C@@H]3CO)cc2OC)cc1 [Compound 82] .
# output 180

# input Check TRPC6 (Homo sapiens (Human)) data and give IC50 for COC[C@H]1CN(c2cnc(N)cc2OC)CCN1C(=O)c1cc(OC)c(Oc2ccccc2)cn1 [Compound 27] .
# output 75

# input Check TRPC6 (Homo sapiens (Human)) data and give IC50 for COc1cc(C(=O)N2CCC(c3ccc(N)nn3)CC2)ncc1O[C@@H](C)C1CC1 [Compound 79] .
# output 3700

# input Check TRPC6 (Homo sapiens (Human)) data and give IC50 for COc1cc(C(=O)N2CCC(c3nnc(N)cc3OC)CC2)ncc1Oc1ccc(F)cc1 [Compound 49] .
# output 250

# input Check TRPC6 (Homo sapiens (Human)) data and give IC50 for CCOc1cc(C(=O)N2CCC(c3ccc(N)nn3)CC2)ncc1Oc1ccc(F)cc1 [Compound 88] .
# output 750

Provide IC50 for all items below, preserving their order.
1. COc1cc(N)ncc1N1CCN(C(=O)c2ccc(Oc3ccccc3)cn2)[C@@H]([C@H](C)O)C1 [Compound 58]
2. COc1cc(C(=O)N2CCC(c3cnc(N)cc3OC)CC2)ncc1OCC(C)C [Compound 39, trifluoroacetic acid]
3. COc1cc(C(=O)N2CCC(c3cnc(N)cc3C)CC2)ncc1Oc1ccccc1 [Compound 10]

# output
1: 100; 2: 170; 3: 27

====

Biological target: TRPC6 (Homo sapiens (Human), UniProt Q9Y210)
Assay: High throughput screening assay: fluorescent calcium (Fluo4/AM) assay of TRPC6 channel activation by GSK1702934A in HEK293/TREx cells
Conditions: HEK293/TREx cells stably transfected with TRPC6; agonist GSK1702934A; 7 concentrations 20 μM to 0.027 μM, triplicate
From the text: This screening assay measures TRPC6 (transient receptor potential cation channel, subfamily C, member 6) ion channel activation via addition either of the commercially available DAG ligand analogue OAG (1-oleoyl-2-acetyl-sn-glycerol) or of the TRPC6 agonist 1-[1-(4,5,6,7,8-pentahydrocyclohepta[2,1-d]thiophen-2-ylcarbonyl)-4-piperidyl]-3-hydrobenzimidazol-2-one (GSK1702934A). […]
parameter.measured: IC50 (nM)
One number for each entry, in nM.

A selection of reference data follows.
# input Quickly give me recorded IC50 for COc1cc(C(=O)N2C3CCC2CN(c2cnc(N)cc2OC)C3)ncc1Oc1ccc(F)cc1 [Compound 38]
# output 170

# input Quickly give me recorded IC50 for COc1ccc(Oc2cnc(C(=O)N3CCC(c4ccc(N)nc4)CC3)cc2OC)cc1 [Compound 22]
# output 46

# input Quickly give me recorded IC50 for COc1cc(C(=O)N2CCC(c3nnc(N)cc3OC)CC2)ncc1Oc1ccc(C(F)(F)F)cc1 [Compound 56]
# output 290

Provide IC50 for all items below, preserving their order.
1. COC[C@H]1CN(c2cnc(N)cc2OC)CCN1C(=O)c1cc(OC)c(Oc2ccc(F)cc2)cn1 [Compound 55]
2. COc1cc(C(=O)N2CCN(c3ccc(N)nc3)C[C@@H]2CO)ncc1Oc1ccc(F)cc1 [Compound 20]

# output
[220, 42]

Provide IC50 for all items below, preserving their order.
1. COc1cc(C(=O)N2CCN(c3cnc(N)cc3OC)C[C@@H]2CO)ncc1Oc1ccc(F)cc1 [Compound 42]
2. COc1cc(C(=O)N2CCC(c3cnc(N)cc3OC)CC2)ncc1O[C@H](C)C1CC1 [Compound 77]

# output
1. 140
2. 2200

====

molecular target: TRPC6 (Homo sapiens (Human)); experiment: High throughput screening assay: fluorescent calcium (Fluo4/AM) assay of TRPC6 channel activation by GSK1702934A in HEK293/TREx cells; conditions: HEK293/TREx cells stably transfected with TRPC6; agonist GSK1702934A; 7 concentrations 20 μM to 0.027 μM, triplicate
Kindly state pIC50 for each of the entries shown.
Answers are plain numbers, as −log10 of the molar value.

# input Quickly give me recorded pIC50 for COc1cc(C(=O)N2CCN(c3cnc(N)cc3OC)C[C@H]2CO)ncc1Oc1ccccc1 [Compound 71]
# output 6.07

Provide pIC50 for all items below, preserving their order.
1. COc1cc(C(=O)N2CCN(c3cnc(N)cc3C)C[C@@H]2CO)ncc1Oc1ccc(F)cc1 [Compound 7]
2. COc1ccc(Oc2cnc(C(=O)N3CCC(c4nnc(N)cc4OC)CC3)cc2OC)cc1 [Compound 66]
3. COc1cc(C(=O)N2CCC(c3ccc(N)nn3)CC2)ncc1OCC1(C)CC1 [Compound 75]
4. COc1cc(C(=O)N2CCC(c3nnc(N)cc3C)CC2)ncc1OCC1CC1 [Compound 78]
5. COc1cc(C(=O)N2CCC(c3ccc(N)nn3)CC2)ncc1OCCC1CC1 [Compound 67]

# output
7.57
6.08
5.82
5.55
6.25

Provide pIC50 for all items below, preserving their order.
1. COc1cc(N)ncc1N1CCN(C(=O)c2ccc(Oc3ccccc3)cn2)[C@@H]([C@@H](C)O)C1 [Compound 50]
2. COc1cc(C(=O)N2CCC(c3ccc(N)nn3)CC2)ncc1Oc1ccccc1 [Compound 16]
3. COc1cc(C(=O)N2CCC(c3cnc(N)cc3OC)CC2)ncc1OC1CCCC1 [Compound 35]
4. COc1cc(C(=O)N2CCC(c3ccc(N)nn3)CC2)ncc1OCCc1ccccc1 [Compound 73]

# output
7.33
7.57
7.03
5.89

Provide pIC50 for all items below, preserving their order.
1. COc1cc(C(=O)N2CCC(c3cnc(N)cc3OC)CC2)ncc1OCc1ccccc1 [Compound 43]
2. COc1cc(C(=O)N2CCN(c3cnc(N)cc3OC)C[C@@H]2CO)ncc1Oc1ccccc1 [Compound 69]
3. COc1cc(C(=O)N2CCC(c3cnc(N)cc3OC)CC2)ncc1OCC(C)C(F)(F)F (single isomer, unassigned) [Compound 94a]

# output
1. 6.85
2. 6.20
3. 6.46

Provide pIC50 for all items below, preserving their order.
1. CCOc1cnc(C(=O)N2CCC(c3cnc(N)cc3OC)CC2)cc1OC [Compound 65]
2. COc1cc(C(=O)N2CCC(c3cnc(N)cc3OC)CC2)ncc1OCC(C)C(F)(F)F (single isomer, unassigned) [Compound 94b]
3. COc1cc(C(=O)N2CCC(c3ccc(N)nn3)CC2)ncc1OCc1ccc(F)cc1 [Compound 41]
4. COc1cc(C(=O)N2CCN(c3ccc(N)nc3)CC2)ncc1Oc1ccc(F)cc1 [Compound 13]
5. COc1cc(C(=O)N2CCC(c3cc(OC)c(N)nn3)CC2)ncc1Oc1ccccc1 [Compound 21]

# output
6.08
6.45
6.74
7.57
7.37

Provide pIC50 for all items below, preserving their order.
1. CCOc1cc(C(=O)N2CCC(c3ccc(N)nn3)CC2)ncc1Oc1ccccc1 [Compound 83]
2. COc1ccc(Oc2cnc(C(=O)N3CCC(c4ccc(N)nn4)CC3)cc2OC)cc1 [Compound 44]
3. COc1cc(C(=O)N2CCC(c3cnc(N)cc3OC)CC2)ncc1OCC1CC1 [Compound 37]
4. COc1cc(C(=O)N2CCC(c3ccc(N)nn3)CC2)ncc1OCc1ccccc1F [Compound 57]
5. COc1cc(C(=O)N2CCN(c3cnc(N)cc3C)C[C@@H]2CO)ncc1Oc1ccccc1 [Compound 18]
6. COc1cc(C(=O)N2CCC(c3ccc(N)nn3)CC2)ncc1OCC1CCC1 [Compound 25]
7. COc1ccc(Oc2cnc(C(=O)N3CCC(c4cnc(N)cc4OC)CC3)cc2OC)cc1 [Compound 28]
8. COc1cc(C(=O)N2CCC(c3ccc(N)nn3)CC2)ncc1OCC(C)(C)C [Compound 74]

# output
[7.01, 6.85, 6.80, 6.52, 7.51, 7.15, 7.00, 5.85]

Provide pIC50 for all items below, preserving their order.
1. COc1cc(C(=O)N2CCN(c3cnc(N)cc3OC)CC2)ncc1Oc1ccccc1 [Compound 5]
2. COc1cc(C(=O)N2CCC(c3cnc(N)cc3OC)CC2)ncc1OCC1CCC1(F)F (centres unmarked) [Compound 95]
3. COc1cc(C(=O)N2CCC(c3ccc(N)nn3)CC2)ncc1Oc1ccc(OC(F)F)cc1 [Compound 54]

# output
1. 7.57
2. 6.35
3. 6.66
